These measurements were taken from patent US4837207A.

Sequence of the target: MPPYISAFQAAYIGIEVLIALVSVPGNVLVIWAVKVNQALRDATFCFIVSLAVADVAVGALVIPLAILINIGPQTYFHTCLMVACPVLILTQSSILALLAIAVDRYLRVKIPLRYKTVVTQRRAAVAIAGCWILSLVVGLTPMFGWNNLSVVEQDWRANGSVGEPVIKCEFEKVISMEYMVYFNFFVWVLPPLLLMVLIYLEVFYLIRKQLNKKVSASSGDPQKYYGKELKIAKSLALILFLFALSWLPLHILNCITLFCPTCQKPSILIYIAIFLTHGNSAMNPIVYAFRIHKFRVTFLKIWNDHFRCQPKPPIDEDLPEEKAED
PROPERTY NAME: IC50 (nM)

[I] OC[C@H]1O[C@@H](n2cnc3c(NC4CC5CCC4C5)ncnc32)[C@H](O)[C@@H]1O (mixture of isomers) [Diastereomeric mixture, N^6-endo-bicyclo[2.2.1]heptyl adenosine]
[II] OC[C@H]1O[C@@H](n2cnc3c(N[C@@H]4C[C@@H]5CC[C@H]4C5)ncnc32)[C@H](O)[C@@H]1O
Task item: Which item exceeds the other in IC50, I or II ? The response must carry the label of the picked entry.
Reply: II
(II: 2.63 nM, I: 0.738 nM)
